# measurement-notes: inhibitors of hydroxyurea-induced Chk1 phosphorylation, primary screen, imaging, HeLa, phospho-Chk1 nuclear intensity (AID 1187); also: test concentration not given here
# details: hydroxyurea-induced phospho-Chk1 immunofluorescence imaging, higher = more signal
Outcome label depends on z-score relative to -0.3: at/above gives Yes, below gives No.

- compound: "CCOC(=O)C=Cc1cc([N+](=O)[O-])ccc1O"
  answer-label: "No"
- compound: "CCCC=C(CCC)[C@@H](NS(=O)(=O)c1cccs1)c1ccc(C(=O)OC)cc1"
  answer-label: "Yes"
- compound: "CCOC(=O)[C@H]1CC=C2CC1C(=O)N1CCC[C@@H]1[C@@H]2O[Si](C)(C)C(C)(C)C (stereo not given in full)"
  answer-label: "No"
- compound: "O=C1[C@H]2C=C(Br)[C@H](C[C@@H]2c2ccccc2)[C@@]12CO2"
  answer-label: "Yes"
- compound: "COc1cc(CO)cc(I)c1O[C@H]1C=C(C(=O)NCCO)C[C@@H](N(CCN2CCOCC2)C(=O)C2CCOC2)[C@@H]1O (stereo not given in full)"
  answer-label: "Yes"
- compound: "COC(=O)[C@@]1(Cc2ccc(F)cc2)[C@@H]2[C@@H](CC(=O)[C@H]2CC(=O)C(=O)N(C)C)CN1C(=O)c1ccccc1"
  answer-label: "Yes"
- compound: "CCCC[C@H]1OB(O)C[C@H]2C1=C(COc1ccccc1)C[C@H]1C(=O)N(C)C(=O)[C@H]12"
  answer-label: "Yes"
- compound: "CN(C)CCCNC(=O)[C@@]1(c2ccc([N+](=O)[O-])cc2)CC(=O)N(C2CCCCC2)[C@@H]1c1ccc(CO)cc1"
  answer-label: "No"
- compound: "C=C(/C(=C/C[C@@H](OC(C)=O)c1ccc(OCCO)cc1)c1cnc2ccccc2c1)C(C)C"
  answer-label: "Yes"
- compound: "CC1CC/C=C\\[C@H]2OC34C=CCN(c5ccc(Cl)cc5)C(=O)[C@H]3N(CCO)C(=O)[C@]4(C)C2C(=O)O1 (stereo not given in full)"
  answer-label: "Yes"
- compound: "C=CCNC(=O)[C@H]1[C@@H]2C(=O)O[C@@H](c3ccccc3)[C@@H](c3ccccc3)N2[C@@H](c2ccc(OCCO)cc2)[C@]12C(=O)N(C(=O)OCCOC)c1ccccc12"
  answer-label: "Yes"
- compound: "C=CC[C@@]1(C(N)=O)N=C(c2ccc(OCCCO)cc2)O[C@@H]1c1ccccc1CN=[N+]=[N-]"
  answer-label: "Yes"
- compound: "COc1ccc(CCNC(=O)[C@@H]2c3ccccc3C(=O)N(C3Cc4ccccc4C3)[C@H]2c2ccc(CO)cc2)cc1"
  answer-label: "Yes"
- compound: "COC(=O)[C@@]1(Cc2ccc(F)cc2)[C@H]2c3cc(C(=O)N(C)C)n(CC4CC4)c3C[C@H]2CN1C(=O)c1ccccc1"
  answer-label: "No"
- compound: "COCCOC(=O)N1C(=O)[C@@]2(c3cc(C#CCCO)ccc31)[C@H](C(=O)Nc1nc3ccccc3s1)[C@H]1C(=O)O[C@H](c3ccccc3)[C@H](c3ccccc3)N1[C@@H]2c1ccc(OCCO)cc1"
  answer-label: "No"
